Measured values drawn from paper PMC8569681 for this set.

# target-under-test: Electrophorus electricus AChE (EeAChE) (Electrophorus electricus)
# Construct: purchased Sigma-Aldrich (Milan, Italy)
# Sequence (O42275 24-633): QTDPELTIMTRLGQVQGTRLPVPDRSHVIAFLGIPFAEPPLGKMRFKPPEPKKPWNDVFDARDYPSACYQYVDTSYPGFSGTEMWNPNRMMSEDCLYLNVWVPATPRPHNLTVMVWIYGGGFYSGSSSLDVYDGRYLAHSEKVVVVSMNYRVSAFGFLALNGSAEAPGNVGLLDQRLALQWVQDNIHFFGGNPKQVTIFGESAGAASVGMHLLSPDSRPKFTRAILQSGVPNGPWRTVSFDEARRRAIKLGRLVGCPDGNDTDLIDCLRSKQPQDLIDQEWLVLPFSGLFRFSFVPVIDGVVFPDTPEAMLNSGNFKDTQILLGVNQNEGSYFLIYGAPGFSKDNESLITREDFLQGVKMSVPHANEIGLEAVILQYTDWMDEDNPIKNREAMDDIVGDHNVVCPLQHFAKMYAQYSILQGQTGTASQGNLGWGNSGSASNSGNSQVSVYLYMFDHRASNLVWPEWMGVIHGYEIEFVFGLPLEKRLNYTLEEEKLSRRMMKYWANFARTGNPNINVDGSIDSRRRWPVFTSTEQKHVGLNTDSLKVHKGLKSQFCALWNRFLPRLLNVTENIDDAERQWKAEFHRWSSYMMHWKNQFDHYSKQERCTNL
# protocol-summary: Percent inhibition of EeAChE, Ellman's spectrophotometric method
# Assay type: biochemical
# condition-set: read-out: % inhibition vs EeAChE ± SD, [I] 9 μM; 0.0833 U/mL enzyme, 100 μM acetylthiocholine
quantity-measured: inhibition at 9 µM

Worked examples, 6 compounds total:
| sample-smiles | inhibition at 9 µM |
| --- | --- |
| Clc1cc(CNCCCCCCNc2ncccn2)cc(Cl)n1 | 18.5% |
| COc1cc(CNCCCCCCNc2ccccn2)ccc1O | ~60% |
| Brc1ccc(CNCCCCCCNc2ccccn2)cc1 | 24 to 30% |
| Brc1ccc(CNCCCCCNc2ccccn2)cc1 | 18.2% |
| Brc1ccc(CNCCCCCNc2ncccn2)cc1 | 14.5% |
| COc1cc(CNCCCCCCNc2ncccn2)cc(OC)c1OC | 16.4% |

inhibition at 9 µM for `COc1ccccc1CNCCCCCCNc1ccccn1` is ~60%

inhibition at 9 µM for `Oc1cccc(CNCCCCCCNc2ccccn2)c1` is ~40%
